Organism: Mus musculus
RUN_DESCRIPTION: Skin irritant activity in NMRI mouse ear assessed as irritancy after 24 hrs
Format: ADME, organism-based
TEST_CONDITIONS: in vivo
ASSAY_READOUT: Activity (nmol⁻¹)

SMILES_NOTATION	ASSAY_READOUT	RESULT_NUMBER
C=C(C)[C@]12C[C@@H](C)[C@@]34O[C@](/C=C\C=C\CCCCC)(O[C@@H]1[C@@H]3[C@@H]1O[C@]1(CO)[C@@H](O)[C@]1(O)C(=O)C(C)=C[C@H]14)O2	Activity	6.7
C=C(C)[C@]12O[C@@]3(/C=C/C=C/CCCCC)O[C@@H]1[C@@H]1[C@@H]4O[C@]4(CO)[C@@H](O)[C@]4(O)C(=O)C(C)=C[C@H]4[C@@]1(O3)[C@H](C)[C@H]2OC(C)=O	Activity	3.7
C=C(C)[C@]12O[C@@]3(/C=C/C=C/CCCCC)O[C@@H]1[C@@H]1[C@@H]4O[C@]4(CO)[C@@H](O)[C@]4(O)C(=O)C(C)=C[C@H]4[C@@]1(O3)[C@H](C)[C@H]2O	Activity	1.1
